Hello, the source for this data is patent US11021493B2, in case you need it.

Where a name gives a salt, the structure may show the parent alone.
Kindly state IC50 for each of the entries shown.
Number only, in µM; omit the unit.

Q. API: value(readout=IC50, system=UniProtKB P07339) for record CC1(C)C(N)=N[C@](C)(c2cc(/C=C(\F)c3cnc(OCC4CCC4)cn3)ccc2F)CS1(=O)=O
Sequence (P07339 65-412, species assumed): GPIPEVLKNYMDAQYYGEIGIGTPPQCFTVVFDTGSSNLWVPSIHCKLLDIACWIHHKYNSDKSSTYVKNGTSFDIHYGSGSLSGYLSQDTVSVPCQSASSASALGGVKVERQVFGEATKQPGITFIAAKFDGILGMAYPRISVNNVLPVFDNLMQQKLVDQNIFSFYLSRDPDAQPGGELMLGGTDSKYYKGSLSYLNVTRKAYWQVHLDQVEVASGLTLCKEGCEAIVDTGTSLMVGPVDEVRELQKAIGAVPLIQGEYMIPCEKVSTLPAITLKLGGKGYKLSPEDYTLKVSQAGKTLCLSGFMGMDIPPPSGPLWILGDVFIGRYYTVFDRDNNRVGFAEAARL
A. 27.5

Q. Field: IC50 (UniProtKB P07339). Entry: CN1C(N)=N[C@](C)(c2cc(/C=C(\F)c3cc(F)c(Cl)cn3)ccc2F)CS1(=O)=O
A. 68.8

Q. For UniProtKB P07339, provide IC50 of C#C[C@H](C)Oc1cnc(/C(F)=C/c2cc(F)c(F)c([C@]3(C)CS(=O)(=O)N(C)C(N)=N3)c2)cn1 [Example 167, hydrochloride] please.
A. 32.5

Q. Reported IC50 for UniProtKB P07339, given CC1(C)C(N)=N[C@](C)(c2cc(/C=C(\F)c3cnc(Cl)cn3)cnc2F)CS1(=O)=O ?
A. 85.4

Q. Query the reported IC50 for UniProtKB P07339; item: CC1(C)C(N)=N[C@](C)(c2cc(/C=C(\F)c3cnc(OCc4ccccc4)cn3)cnc2F)CS1(=O)=O
A. 46.5

Q. Lookup: IC50 / UniProtKB P07339 / C#CCOc1cnc(/C(F)=C/c2ccc(F)c([C@]3(C)CS(=O)(=O)N(C)C(N)=N3)c2)cn1
A. 35.8

Q. Look up IC50 with UniProtKB P07339 for this molecule: CN1C(N)=N[C@](C)(c2cc(/C=C(\F)c3cnc(Cl)cn3)ccc2F)C(C)(C)S1(=O)=O
A. 217

Q. Notebook: pull reported IC50 for UniProtKB P07339, entry CN1C(N)=N[C@](C)(c2cc(/C=C(\F)c3ccc(C#N)cn3)ccc2F)C2(CC2)S1(=O)=O
A. 129

Q. Param readout= IC50; system= UniProtKB P07339; entry= CN1C(N)=N[C@](C)(c2cc(/C=C(\F)c3cnc(OCC(F)(F)F)cn3)ccc2F)C2(CC2)S1(=O)=O ; returns value.
A. 223

Q. Lab note: need IC50 with UniProtKB P07339 for entry CC1(C)C(N)=N[C@](C)(c2cc(/C=C(\F)c3ccc(C#N)cn3)cc(F)c2F)CS1(=O)=O , please look it up.
A. 76.1

Q. So what IC50 did Cc1noc(COc2cnc(/C(F)=C/c3ccc(F)c([C@]4(C)CS(=O)(=O)C(C)(C)C(N)=N4)c3)cn2)n1 get with UniProtKB P07339?
A. 124

Q. Form: Entry = CC1(C)C(N)=N[C@](C)(c2cc(/C=C(\F)c3cnc(OCC4CC4)cn3)ccc2F)CS1(=O)=O | System = UniProtKB P07339 | IC50 = ____
A. 74.7

Q. Param readout = IC50; param system = UniProtKB P07339; param query = Cc1cc(C#N)cnc1/C(F)=C/c1ccc(F)c([C@]2(C)CS(=O)(=O)C(C)(C)C(N)=N2)c1 ; response: value
A. 122

Q. Query for UniProtKB P07339: what IC50 does the record show for CC1(C)C(N)=N[C@](C)(c2cc(/C=C(\F)c3cnc(C#N)cn3)ccc2F)CS1(=O)=O ?
A. 645

Q. Hi! What's the reported IC50 for COC[C@H](C)Oc1cnc(/C(F)=C/c2ccc(F)c([C@]3(C)CS(=O)(=O)N(C)C(N)=N3)c2)cn1 on UniProtKB P07339?
A. 107

Q. Requested read-out IC50, target or system UniProtKB P07339, entry CC1(C)C(N)=N[C@](C)(c2cc(/C=C(\F)c3cnc(OCc4ncco4)cn3)ccc2F)CS1(=O)=O
A. 163

Q. What is its IC50 for UniProtKB P07339? Entry: Cc1nnc(COc2cnc(/C(F)=C/c3ccc(F)c([C@]4(C)CS(=O)(=O)N(C)C(N)=N4)c3)cn2)o1
A. 78.1

Q. Item: COCCOc1cnc(/C(F)=C/c2ccc(F)c([C@@]3(C)N=C(N)[C@@]4(CF)CC[C@@H]3S4(=O)=O)c2)cn1 Test system: UniProtKB P07339 Read-out: IC50 Value: ?
A. 173

Q. Give the reported IC50 for Cc1noc(COc2cnc(/C(F)=C/c3ccc(F)c([C@@]4(C)N=C(N)N(C)S(=O)(=O)C45CC5)c3)cn2)n1 (system: UniProtKB P07339).
A. 59.6

Q. // lookup IC50 | system=UniProtKB P07339 | key= CC1(C)C(N)=N[C@](C)(c2cc(/C=C(\F)c3ccc(Cl)cn3)ccc2F)CS1(=O)=O
A. 115

Q. Short answer please: IC50, UniProtKB P07339, entry C[C@]1(c2cc(/C=C(\F)c3cnc(OCCF)cn3)ccc2F)N=C(N)[C@@]2(CF)CC[C@@H]1S2(=O)=O
A. 428

Q. Observed IC50 on UniProtKB P07339 for CC#CCOc1cnc(/C(F)=C/c2ccc(F)c([C@]3(C)CS(=O)(=O)C(C)(C)C(N)=N3)c2)cn1 , please.
A. 109

Q. Lab note: need IC50 for CN1C(N)=N[C@](C)(c2cc(/C=C(\F)c3cc4ccccc4cn3)ccc2F)CS1(=O)=O on UniProtKB P07339, anyone have it?
A. 116

Q. Form entry - test system: UniProtKB P07339; read-out: IC50; molecule: CC1(C)C(N)=N[C@](C)(c2cc(/C=C(\F)c3cnc(OCCn4ccnc4)cn3)ccc2F)CS1(=O)=O
A. 440

Q. Lab note: need IC50 with UniProtKB P07339 for entry C#CCOc1cnc(/C(F)=C/c2ccc(F)c([C@]3(C)CS(=O)(=O)C4(CCC4)C(N)=N3)c2)cn1 , please look it up.
A. 110
